target: SARS-COV-2 RBD extracellular domain expressed with a C-terminal myc-myc-hexahistidine tag (SARS-CoV-2); test: SPR (Biacore), mAb captured by anti-human Fc, RBD-mmH in solution, 25 C
reported_endpoint: t½ (min)
Please respond with the number in min and leave the unit unwritten.

Data request: # lookup: t½ of mAb15159 (antibody, V domains shown) VH: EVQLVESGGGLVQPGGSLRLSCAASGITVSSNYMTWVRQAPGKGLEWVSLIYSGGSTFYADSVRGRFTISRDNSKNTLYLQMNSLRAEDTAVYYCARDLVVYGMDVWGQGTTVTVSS VL: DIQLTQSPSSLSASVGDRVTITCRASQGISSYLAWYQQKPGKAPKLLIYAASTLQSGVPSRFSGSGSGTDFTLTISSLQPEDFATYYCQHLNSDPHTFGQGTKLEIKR
Data returned: 88.8

Data request: # lookup: t½ of mAb14235 (antibody, V domains shown) VH: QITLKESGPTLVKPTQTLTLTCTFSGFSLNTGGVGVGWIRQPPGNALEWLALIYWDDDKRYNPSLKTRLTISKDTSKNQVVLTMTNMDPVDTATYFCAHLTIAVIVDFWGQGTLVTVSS VL: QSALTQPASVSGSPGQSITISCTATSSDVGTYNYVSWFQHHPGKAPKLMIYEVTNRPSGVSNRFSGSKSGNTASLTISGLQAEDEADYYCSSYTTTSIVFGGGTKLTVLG
Data returned: 11

Data request: # lookup: t½ of mAb14294 (antibody, V domains shown) VH: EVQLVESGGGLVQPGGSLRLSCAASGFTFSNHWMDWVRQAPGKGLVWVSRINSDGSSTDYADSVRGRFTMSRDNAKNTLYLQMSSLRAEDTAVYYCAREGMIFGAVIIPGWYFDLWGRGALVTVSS VL: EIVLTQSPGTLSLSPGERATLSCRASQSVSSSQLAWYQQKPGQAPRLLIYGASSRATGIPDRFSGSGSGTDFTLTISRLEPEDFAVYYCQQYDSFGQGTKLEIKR
Data returned: 21.1

Data request: # lookup: t½ of mAb14234 (antibody, V domains shown) VH: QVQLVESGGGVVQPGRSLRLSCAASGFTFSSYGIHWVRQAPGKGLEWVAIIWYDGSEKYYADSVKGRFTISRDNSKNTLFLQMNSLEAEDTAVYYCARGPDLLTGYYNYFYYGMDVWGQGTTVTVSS VL: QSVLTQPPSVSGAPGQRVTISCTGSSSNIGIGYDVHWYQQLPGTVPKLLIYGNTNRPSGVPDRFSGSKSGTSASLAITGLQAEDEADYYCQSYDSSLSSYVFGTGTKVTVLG
Data returned: 1

Data request: # lookup: t½ of mAb14283 (antibody, V domains shown) VH: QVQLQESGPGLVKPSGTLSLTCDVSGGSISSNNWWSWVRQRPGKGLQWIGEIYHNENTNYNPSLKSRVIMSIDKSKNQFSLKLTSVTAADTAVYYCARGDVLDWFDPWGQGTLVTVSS VL: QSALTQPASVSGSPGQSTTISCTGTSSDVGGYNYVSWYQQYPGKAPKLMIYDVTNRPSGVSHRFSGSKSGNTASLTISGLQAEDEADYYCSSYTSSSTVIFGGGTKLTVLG
Data returned: 7.3

Data request: # lookup: t½ of mAb14312 (antibody, V domains shown) VH: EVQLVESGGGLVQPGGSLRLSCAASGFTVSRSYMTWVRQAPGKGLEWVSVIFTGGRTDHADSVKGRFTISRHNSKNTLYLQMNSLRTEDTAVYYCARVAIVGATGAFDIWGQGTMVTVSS VL: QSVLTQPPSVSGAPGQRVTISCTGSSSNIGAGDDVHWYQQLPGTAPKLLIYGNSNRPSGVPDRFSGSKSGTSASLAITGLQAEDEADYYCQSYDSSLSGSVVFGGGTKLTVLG
Data returned: 12.4

Data request: # lookup: t½ of mAb15150 (antibody, V domains shown) VH: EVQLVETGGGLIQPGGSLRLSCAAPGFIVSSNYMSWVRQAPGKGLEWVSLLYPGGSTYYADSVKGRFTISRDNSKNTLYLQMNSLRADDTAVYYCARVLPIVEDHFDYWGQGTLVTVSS VL: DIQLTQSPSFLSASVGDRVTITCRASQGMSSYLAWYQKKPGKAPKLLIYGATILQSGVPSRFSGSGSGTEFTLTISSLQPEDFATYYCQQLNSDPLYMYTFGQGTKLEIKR
Data returned: 251
